assayTarget: CD209 antigen (Homo sapiens, UniProt Q9NNX6)
Sequence (Q9NNX6 whole entry): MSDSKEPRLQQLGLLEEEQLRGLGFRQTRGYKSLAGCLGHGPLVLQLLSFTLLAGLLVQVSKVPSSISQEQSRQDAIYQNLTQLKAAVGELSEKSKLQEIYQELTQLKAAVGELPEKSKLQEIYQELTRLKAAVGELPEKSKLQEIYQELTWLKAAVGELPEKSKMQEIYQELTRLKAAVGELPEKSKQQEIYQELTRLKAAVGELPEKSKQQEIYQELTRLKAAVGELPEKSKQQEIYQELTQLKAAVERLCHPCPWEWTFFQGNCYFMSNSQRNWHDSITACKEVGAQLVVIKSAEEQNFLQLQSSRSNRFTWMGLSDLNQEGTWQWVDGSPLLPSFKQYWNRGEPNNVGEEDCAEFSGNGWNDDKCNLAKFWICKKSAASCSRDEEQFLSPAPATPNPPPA
measuredAttribute: IC50 (mM)
Kindly answer with a numeric value in mM, unit omitted.

For "NC(=O)[C@@H](CCC(=O)O)NC(=O)[C@H]1C[C@@H](O)[C@H](O)[C@H](O)[C@H]1SCCCCSCc1cccc(F)c1" , what is its reported IC50?
3.2
